ASSAYED TARGET: LePEDH (tomato 2-phenylethanol dehydrogenase, full-length cLET2M9) (Solanum lycopersicum)
Sequence (A6N6K7 entry or part of it): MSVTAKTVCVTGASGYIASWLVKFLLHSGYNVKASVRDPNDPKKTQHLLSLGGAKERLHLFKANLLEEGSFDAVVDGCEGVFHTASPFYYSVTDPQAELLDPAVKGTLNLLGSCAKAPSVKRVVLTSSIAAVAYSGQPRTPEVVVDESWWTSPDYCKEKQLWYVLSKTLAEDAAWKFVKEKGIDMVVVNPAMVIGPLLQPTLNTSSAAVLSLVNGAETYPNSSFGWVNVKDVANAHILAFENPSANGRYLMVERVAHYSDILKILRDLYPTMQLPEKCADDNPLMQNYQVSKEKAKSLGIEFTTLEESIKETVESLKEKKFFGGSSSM
TEST NAME: Alcohol dehydrogenase activity of E. coli expressed His-tagged LePEDH on phenylacetaldehyde and related substrates (Km)
Type: biochemical
RUN PARAMETERS: His tag
OBSERVED PROPERTY: Alcohol dehydrogenase activity level as substrate

MOLECULE: O=Cc1ccccc1 [Benzaldehyde]
RESULT: Lower activity levels
//
MOLECULE: O=C/C=C/c1ccccc1 [Cinnamaldehyde]
RESULT: Lower activity levels
